# Test system: MCF-7 (estrogen receptor positive breast cancer cells)
# protocol_text: Anti-proliferation assay (MTS/PMS, 72 h), MCF-7
# Assay type: cell-based
# assay_setup: Homo sapiens, MCF7, Table 3, substituted para-para biphenyl core
Mark each entry met if its IC50 sits below 2000 nM, and not met for all others.

- molecule: "COc1cccc(-c2cc(C(=O)Nc3ccc(-c4ccc(OC5CCN(C)CC5)cc4Cl)cc3)ccc2OC)c1 [Compound 29j]"
  category: "not met"
- molecule: "COc1cccc(-c2cc(C(=O)Nc3ccc(-c4ccc(OC5CCN(C)CC5)cc4)cc3Cl)ccc2OC)c1 [Compound 29l]"
  category: "met"
- molecule: "COc1cccc(-c2cc(C(=O)Nc3ccc(-c4ccc(OC5CCN(C)CC5)cc4)c(N)c3)ccc2OC)c1 [Compound 38c]"
  category: "not met"
- molecule: "COc1cccc(-c2cc(C(=O)Nc3ccc(-c4ccc(OC5CCN(C)CC5)cc4)cc3NC(C)=O)ccc2OC)c1 [Compound 39d]"
  category: "met"
- molecule: "COc1cccc(-c2cc(C(=O)Nc3ccc(-c4ccc(OC5CCN(C)CC5)cc4OC)cc3)ccc2OC)c1 [Compound 29f]"
  category: "met"
- molecule: "COc1cccc(-c2cc(C(=O)Nc3ccc(-c4ccc(OC5CCN(C)CC5)cc4N)cc3)ccc2OC)c1 [Compound 38b]"
  category: "met"
- molecule: "COc1cccc(-c2cc(C(=O)Nc3ccc(-c4ccc(OC5CCN(C)CC5)cc4)c(OC)c3)ccc2OC)c1 [Compound 29g]"
  category: "met"
- molecule: "COc1cccc(-c2cc(C(=O)Nc3ccc(-c4ccc(OC5CCN(C)CC5)cc4)c(Cl)c3)ccc2OC)c1 [Compound 29k]"
  category: "not met"
- molecule: "COc1cccc(-c2cc(C(=O)Nc3ccc(-c4ccc(OC5CCN(C)CC5)cc4)c([N+](=O)[O-])c3)ccc2OC)c1 [Compound 34c]"
  category: "not met"
- molecule: "COc1cccc(-c2cc(C(=O)Nc3ccc(-c4ccc(OC5CCN(C)CC5)cc4)cc3C)ccc2OC)c1 [Compound 29d]"
  category: "met"
- molecule: "COc1cccc(-c2cc(C(=O)Nc3ccc(-c4ccc(OC5CCN(C)CC5)c(OC)c4)cc3)ccc2OC)c1 [Compound 29e]"
  category: "met"
- molecule: "COc1cccc(-c2cc(C(=O)Nc3ccc(-c4ccc(OC5CCN(C)CC5)c(C#N)c4)cc3)ccc2OC)c1 [Compound 29m]"
  category: "not met"
- molecule: "COc1cccc(-c2cc(C(=O)Nc3ccc(-c4ccc(OC5CCN(C)CC5)c(Cl)c4)cc3)ccc2OC)c1 [Compound 29i]"
  category: "met"
- molecule: "COc1cccc(-c2cc(C(=O)Nc3ccc(-c4ccc(OC5CCN(C)CC5)cc4NC(C)=O)cc3)ccc2OC)c1 [Compound 39b]"
  category: "met"
- molecule: "COc1cccc(-c2cc(C(=O)Nc3ccc(-c4ccc(OC5CCN(C)CC5)c(N)c4)cc3)ccc2OC)c1 [Compound 38a]"
  category: "not met"
- molecule: "COc1cccc(-c2cc(C(=O)Nc3ccc(-c4ccc(OC5CCN(C)CC5)cc4)cc3[N+](=O)[O-])ccc2OC)c1 [Compound 34d]"
  category: "met"
- molecule: "COc1cccc(-c2cc(C(=O)Nc3ccc(-c4ccc(OC5CCN(C)CC5)c([N+](=O)[O-])c4)cc3)ccc2OC)c1 [Compound 34a]"
  category: "met"
- molecule: "COc1cccc(-c2cc(C(=O)Nc3ccc(-c4ccc(OC5CCN(C)CC5)cc4C)cc3)ccc2OC)c1 [Compound 29b]"
  category: "met"
- molecule: "COc1cccc(-c2cc(C(=O)Nc3ccc(-c4ccc(OC5CCN(C)CC5)cc4)c(C)c3)ccc2OC)c1 [Compound 29c]"
  category: "met"
- molecule: "COc1cccc(-c2cc(C(=O)Nc3ccc(-c4ccc(OC5CCN(C)CC5)cc4)cc3)ccc2OC)c1 [Compound 9a]"
  category: "met"
- molecule: "COc1cccc(-c2cc(C(=O)Nc3ccc(-c4ccc(OC5CCN(C)CC5)cc4)cc3OC)ccc2OC)c1 [Compound 29h]"
  category: "met"
- molecule: "COc1cccc(-c2cc(C(=O)Nc3ccc(-c4ccc(OC5CCN(C)CC5)cc4)c(NC(C)=O)c3)ccc2OC)c1 [Compound 39c]"
  category: "not met"
- molecule: "COc1cccc(-c2cc(C(=O)Nc3ccc(-c4ccc(OC5CCN(C)CC5)cc4)cc3N)ccc2OC)c1 [Compound 38d]"
  category: "not met"
- molecule: "COc1cccc(-c2cc(C(=O)Nc3ccc(-c4ccc(OC5CCN(C)CC5)cc4[N+](=O)[O-])cc3)ccc2OC)c1 [Compound 34b]"
  category: "met"
- molecule: "COc1cccc(-c2cc(C(=O)Nc3ccc(-c4ccc(OC5CCN(C)CC5)c(C)c4)cc3)ccc2OC)c1 [Compound 29a]"
  category: "met"
- molecule: "COc1cccc(-c2cc(C(=O)Nc3ccc(-c4ccc(OC5CCN(C)CC5)c(NC(C)=O)c4)cc3)ccc2OC)c1 [Compound 39a]"
  category: "met"

// data source = patent US10689344B2
